As shown below, each of these binders has a reported Ki value.
TARGET OF ASSAY: T1, human MC4 receptor (human, UniProt P32245 1-332)
T1 construct: whole, on cells; Assayed as membranes of BHK cells stably expressing the receptor; also called melanocortin receptor subtype 4; melanocortin receptor 4
T1 sequence (P32245 whole entry): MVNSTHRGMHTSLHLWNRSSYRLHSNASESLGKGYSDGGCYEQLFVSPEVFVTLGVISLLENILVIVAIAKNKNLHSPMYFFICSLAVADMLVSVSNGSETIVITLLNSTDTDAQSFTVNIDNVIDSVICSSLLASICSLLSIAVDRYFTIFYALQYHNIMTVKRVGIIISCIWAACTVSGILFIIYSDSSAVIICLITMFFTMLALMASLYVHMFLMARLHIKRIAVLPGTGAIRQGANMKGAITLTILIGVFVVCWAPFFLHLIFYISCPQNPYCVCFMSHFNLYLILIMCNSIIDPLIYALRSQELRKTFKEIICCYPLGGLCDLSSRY
ASSAY: 125I-NDP-α-MSH displacement, BHK-human MC4 membranes (Assay V);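 further: Filter-retained radioactivity read by gamma counting, with affinity obtained through non-linear regression fitting of the binding curves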
Positions of bridges follow the written chain, without caps; N, C: chain ends. Non-standard residues stand in square brackets, D forms with d. Groups on a side chain read outwards from the residue. *: point of attachment. X5 = NH(2-(2-(2-(17-carboxyheptadecanoylamino)ethoxy)ethoxy)ethyl), O=C(O)CCCCCCCCCCCCCCCCC(=O)NCCOCCOCCN*; biscarboxymethyl = Lys(biscarboxymethyl) = Nepsilon-bis(carboxymethyl)-L-lysine; bis(carboxymethyl) = Lys(biscarboxymethyl) = N6-bis(carboxymethyl)-L-lysine; Palmitoyl(16-(5-tetrazolyl)) = O=C(CCCCCCCCCCCCCCCc1nnn[nH]1)*; Lys(CH2CO2H)2 = N[C@@H](CCCCN(CC(=O)O)CC(=O)O)C(=O)O; C17 diacid = O=C(O)CCCCCCCCCCCCCCCC(=O)*; Orn = NCCC[C@H](N)C(=O)O; AEEA = NCCOCCOCC(=O)O

>  <BINDER>
Ac-[Orn]H[dF]RWDPPREK(biscarboxymethyl)SS-X5 (lactam 1-6)

>  <Ki (nM)>
0.93

$$$$
>  <BINDER>
Ac-[Orn]H[dF]RWEPPRDK(bis(carboxymethyl))K([AEEA-Palmitoyl(16-(5-tetrazolyl))])-NH2 (lactam 1-6)

>  <Ki (nM)>
3.53

$$$$
>  <BINDER>
Ac-KH[dF]RWDPSHE[Lys(CH2CO2H)2]K([AEEA-C17 diacid])-NH2 (lactam 1-6; SMILES CC(=O)N[C@H]1CCCCNC(=O)C[C@@H](C(=O)N2CCC[C@H]2C(=O)N[C@@H](CO)C(=O)N[C@@H](Cc2c[nH]cn2)C(=O)N[C@@H](CCC(=O)O)C(=O)N[C@@H](CCCCN(CC(=O)O)CC(=O)O)C(=O)N[C@@H](CCCCNC(=O)COCCOCCNC(=O)CCCCCCCCCCCCCCCC(=O)O)C(N)=O)NC(=O)[C@H](Cc2c[nH]c3ccccc23)NC(=O)[C@H](CCCNC(=N)N)NC(=O)[C@@H](Cc2ccccc2)NC(=O)[C@H](Cc2c[nH]cn2)NC1=O)

>  <Ki (nM)>
25

$$$$

The origin of these recorded values is patent US20130012432A1.
